Source listed as ChEMBL document CHEMBL5579796.

Provide the recorded pEC50 for the entries that follow.
- System: dengue virus type 2
- assay.comment: Antiviral activity against DENV-2 16,681 infected in Vero E6 cells assessed as reduction in viral infectivity by measuring NS4B-positive cells pretreated with virus for 1 hr followed by compound addition for 1 hr prior to washout and measured after 96 hrs by immunofluorescence analysis
- Type: functional, organism-based
- condition.context: Dengue virus, 16,681, Vero C1008
One number for each entry, as −log10 of the molar value.

| entry.smiles | pEC50 |
| --- | --- |
| CN1C[C@@H]2C[C@H](C1=S)c1cccc(=O)n1C2 | 6.17 |

With those in mind, consider the next molecule.
Q: Specify pEC50 for CN1C[C@@H]2C[C@H](C1)c1cccc(=S)n1C2 , system dengue virus type 2.
A: 5.39

###

- Test system: dengue virus type 2
- assay.comment: Antiviral activity against DENV-2 16,681 infected in Vero E6 cells assessed as reduction in viral infectivity by measuring NS4B-positive cells incubated for 1 hr followed by washout and subsequent culturing
- Assay type: functional, organism-based
- condition.context: Dengue virus, 16,681, Vero C1008, 1 h
For each of the molecules below, state its pEC50.
Give bare numbers, as −log10 of the molar value.

For each of the molecules below, note its pEC50.
1. CN1C[C@@H]2C[C@H](C1=S)c1cccc(=O)n1C2
2. CN1C[C@@H]2C[C@H](C1)c1cccc(=S)n1C2

A:
7.00
5.99

###

Please provide measured pEC50 for the entries that follow.
- System: dengue virus type 2
- assay.comment: Antiviral activity against DENV-2 16,681 infected in Vero E6 cells assessed as reduction in viral infectivity by measuring NS4B-positive cells pretreated with compound for 1 hr followed by viral infection and washout measured after 96 hrs by immunofluorescence analysis
- Type: functional, organism-based
- condition.context: Dengue virus, 16,681, Vero C1008
pEC50: −log10 of the molar value.

| entry.smiles | pEC50 |
| --- | --- |
| CN1C[C@@H]2C[C@H](C1)c1cccc(=S)n1C2 | < 5.00 |

Q: Kindly indicate its recorded pEC50. Item: CN1C[C@@H]2C[C@H](C1=S)c1cccc(=O)n1C2
A: < 5.00

###

- experimental.system: Genome polyprotein (dengue virus type 2, UniProt P29990)
- assay.comment: Inhibition of DENV-2 NS2B/NS3 protease expressed in HEK293 cells cotransfected with CFP-trrg-YFP incubated for 24 hrs by FRET assay
property: pIC50
One number for each entry, as −log10 of the molar value.

| entry.smiles | property | measurement |
| --- | --- | --- |
| CN1C[C@@H]2C[C@H](C1)c1cccc(=S)n1C2 | pIC50 | 4.87 |

Q: For the molecule CN1C[C@@H]2C[C@H](C1=S)c1cccc(=O)n1C2 , give its measured pIC50 value.
A: 5.56

###

- assay.comment: Cytotoxicity against human A549 cells by MTT assay
- Assay type: toxicity, cell-based
property: CC50

| entry.smiles | property | measurement |
| --- | --- | --- |
| CN1C[C@@H]2C[C@H](C1)c1cccc(=S)n1C2 | CC50 | > 50 µM |

Alright, here's another compound for you.
Q: Quick one: give measured CC50 for CN1C[C@@H]2C[C@H](C1=S)c1cccc(=O)n1C2
A: > 50 µM
